- Tested on: 817829-284-R-J1-PDC complex spheroids, viability;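 also: spheroids exposed to agents for 7 days before readout; percent viability relative to DMSO vehicle control taken as 100%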
- Assay Remarks: Anticancer human tumor 817829-284-R-J1-PDC patient-derived colon adenocarcinoma cell line growth inhibition [GQUAD]
- Experimental Parameters: second compound 10 µM; first compound 3.16 µM; stronger effect = lower value
Mark 1.0 for viability, T/C under 20%, 0.0 if at or over.

compound="O=c1[nH]cc(F)c(=O)[nH]1 + Cc1cnc(CNC(=O)c2c(=O)c3ccc(N4CCCN(C)CC4)nc3n3c2sc2ccccc23)cn1" group=1.0
compound="COc1ncnc(C2CC2)c1-c1ncc2cnn(Cc3ccc(-c4nc(C(F)(F)F)cn4C(C)C)cc3)c2n1 + Cc1cnc(CNC(=O)c2c(=O)c3ccc(N4CCCN(C)CC4)nc3n3c2sc2ccccc23)cn1" group=1.0
compound="COc1ccc([C@@H](O)c2cc(-c3ncnc4cc(N5CCOCC5)ccc34)c(F)cc2Cl)nn1 + CN(C)c1ccc(Nc2c3ccc(NC(=O)CCN4CCCC4)cc3nc3cc(NC(=O)CCN4CCCC4)ccc23)cc1" group=0.0
compound="COc1ncnc(C2CC2)c1-c1ncc2cnn(Cc3ccc(-c4nc(C(F)(F)F)cn4C(C)C)cc3)c2n1 + Cc1[nH]c2ccc(F)cc2c1-c1nc2c3cccnc3c3ncccc3c2[nH]1" group=1.0
compound="COc1cccc2c1C(=O)c1c(O)c3c(c(O)c1C2=O)CC(O)(C(=O)CO)CC3OC1CC(N)C(O)C(C)O1 (stereo not given) + CN(C)c1ccc(Nc2c3ccc(NC(=O)CCN4CCCC4)cc3nc3cc(NC(=O)CCN4CCCC4)ccc23)cc1" group=1.0
